- Tested on: mAb3C9
- protocol.details: mimotope-based dcELISA (mAb3C9 and M20-GST-BAD/SA-HRP competitor)
- Assay type: binding, mouse
- cond: M20-GST-BAD; (IC50 of parathion-methyl/IC50 of pesticide) × 100
experimental.readout: CR (%)
One number for each entry, in %.

Example cases with answers are listed next.
COP(=O)(OC)Oc1ccc([N+](=O)[O-])cc1    1.7
CCOP(=S)(OCC)Oc1cnc2ccccc2n1    0.2
CCOP(=S)(OCC)Oc1cc(C)nc(C(C)C)n1    0.2
CCOP(=S)(OCC)SCn1nnc2ccccc2c1=O    4.7
COP(=S)(OC)Oc1nc(Cl)c(Cl)cc1Cl    122.8

Please give CR (%) for each item listed below.
1. COP(=O)(OC)O/C(=C\Cl)c1cc(Cl)c(Cl)cc1Cl
2. COc1nn(CSP(=S)(OC)OC)c(=O)s1
3. COP(=S)(OC)SCn1nnc2ccccc2c1=O
4. CCOP(=S)(OCC)O/N=C(\C#N)c1ccccc1
5. COP(=S)(OC)Oc1cc(Cl)c(Cl)cc1Cl

1. 8.5
2. 157.6
3. 290.8
4. 0.2
5. 10.1

List reported CR (%) for each of these molecules:
1. COP(=S)(OC)Oc1ccc(C#N)cc1
2. COP(=S)(OC)Oc1cc(Cl)c(Br)cc1Cl

146.2
6.2

====

Would you kindly list IC50 ± SD for each of these molecules?
- Test system: mAb3C9
- protocol.details: mimotope-based dcELISA (mAb3C9 and M20-GST-BAD/SA-HRP competitor)
- Assay type: binding, mouse
- cond: mAb3C9, competitor M20-GST-BAD
Give bare numbers, in µg/mL.

COP(=S)(OC)SCN1C(=O)c2ccccc2C1=O    0.0015
CCOP(=S)(OCC)Oc1cc(C)nc(C(C)C)n1    2.0648
COP(=S)(OC)SCn1nnc2ccccc2c1=O    0.0017

# batch size: 7; output IC50 ± SD per entry
1. COc1nn(CSP(=S)(OC)OC)c(=O)s1
2. CCOP(=S)(OCC)Oc1ccc([N+](=O)[O-])cc1
3. CCOP(=S)(OCC)O/N=C(\C#N)c1ccccc1
4. COP(=O)(OC)OC=C(Cl)Cl
5. CNC(=O)/C=C(\C)OP(=O)(OC)OC
6. COP(=S)(OC)Oc1cc(Cl)c(Br)cc1Cl
7. COP(=O)(OC)Oc1ccc([N+](=O)[O-])cc1

[0.0032, 2.3284, 2.5779, 0.1454, 0.2014, 0.0822, 0.2949]

Here are 8 molecules. What values of IC50 ± SD were reported for them?
1. COP(=S)(OC)Oc1ccc([N+](=O)[O-])cc1
2. CCOP(=S)(OCC)SCn1nnc2ccccc2c1=O
3. COP(=S)(OC)Oc1ccc(SC)c(C)c1
4. CCN(CC)c1nc(C)cc(OP(=S)(OC)OC)n1
5. COP(=S)(OC)Oc1ccc(S(=O)(=O)N(C)C)cc1
6. COP(=O)(OC)O/C(=C\Cl)c1cc(Cl)c(Cl)cc1Cl
7. COP(=S)(OC)Oc1cc(Cl)c(Cl)cc1Cl
8. COP(=S)(OC)Oc1ccc(C#N)cc1

[0.0051, 0.1074, 0.0234, 0.0837, 0.0015, 0.0597, 0.0501, 0.0035]

Parameters: items (list). Returns: IC50 ± SD for each item.
1. CCOP(=S)(OCC)Oc1cnc2ccccc2n1
2. COP(=S)(OC)Oc1nc(Cl)c(Cl)cc1Cl
3. COP(=S)(OC)Oc1ccc([N+](=O)[O-])c(C)c1
4. COP(=S)(OC)Oc1c(Cl)cc(C)cc1Cl

[3.2266, 0.0041, 0.0049, 0.0083]

Data provenance: paper PMC5118688
